This listing pairs compounds with measured IC50.
# System under test: PD-1/PD-L1 interaction (PE-labeled human PD-L1-Ig binding to Jurkat cell line over-expressing human PD-1) (Homo sapiens)
# Construct: expressed in transfected cells; host or cells: Jurkat
# Sequence (Q15116 25-288): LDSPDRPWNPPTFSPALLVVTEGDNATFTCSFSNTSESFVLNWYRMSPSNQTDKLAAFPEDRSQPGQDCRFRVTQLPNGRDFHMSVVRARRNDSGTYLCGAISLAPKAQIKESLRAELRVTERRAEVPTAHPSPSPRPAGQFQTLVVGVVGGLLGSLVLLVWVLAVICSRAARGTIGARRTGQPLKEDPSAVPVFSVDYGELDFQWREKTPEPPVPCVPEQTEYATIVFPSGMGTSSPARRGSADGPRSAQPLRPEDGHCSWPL
# Assay details: Jurkat-PD-1 Cell Binding High-Content Screening Assay (CBA)
# Type: cell-based
# Test conditions: Jurkat cell line over-expressing human PD-1; PE-labeled PD-L1-Ig 20 nM final; read-out: Jurkat hPD1-PDL1 IC50
All answers are understood in nM, so give the number only.

Compound	Result unit	IC50
CC[C@H](C)[C@@H]1NC(=O)[C@H](Cc2ccc(-c3ccccc3)cc2)NC(=O)[C@H](C(C)C)NC(=O)[C@H](Cc2cccc(C)c2)NC(=O)[C@H](CC(=O)O)NC(=O)[C@H](Cc2ccc(C(=O)O)cc2)NC(=O)[C@H](Cc2ccncc2)NC(=O)CSC[C@@H](C(=O)N[C@@H](CCCNC(=N)N)C(=O)NCCCCCCCCCCC(=O)O)NC(=O)[C@H]([C@@H](C)O)NC(=O)[C@H](C(C)C)NC(=O)[C@H](CC2CCCCC2)NC(=O)[C@H](CCN)NC(=O)[C@@H](CC(C)C)NC(=O)[C@H](CCCN)NC1=O	nM	103

Now examine the next entry.
Q: Request the reported IC50 associated with Cc1cccc(C[C@@H]2NC(=O)[C@H](CC(=O)O)NC(=O)[C@H](Cc3ccc(OCC(=O)O)cc3)NC(=O)[C@H](CN)NC(=O)CSC[C@@H](C(=O)N[C@@H](CCN)C(=O)NCCCCCCCCCCCCC(=O)O)NC(=O)[C@H](C(C)O)NC(=O)[C@H](C(C)C)NC(=O)[C@H](CC3CCCCC3)NC(=O)[C@H](CCN)NC(=O)[C@@H](CC(C)C)NC(=O)[C@H](CCCN)NC(=O)[C@H](CCCNC(N)=O)NC(=O)[C@H](Cc3ccc(-c4ccccc4)cc3)NC(=O)[C@H](C(C)C)NC2=O)c1 (mixture of isomers)
Ans: 68.6
